# experimental-target: Polyspecificity Reagent (PSR)
# experiment-notes: flow cytometry, IgG presented on yeast, biotinylated PSR, normalised MFI
observation-type: Polyspecificity Reagent (PSR) Score (0-1)

q: Look up Polyspecificity Reagent (PSR) Score (0-1) for this binder: anti-TIGIT antibody clone 26486 (antibody, V domains shown) VH: QVQLQESGPGLVKPSETLSLTCAVSGYSISSGYYWAWIRQPPGKGLEWIGSIYHSGSTYYNPSLKSRVTISVDTSKNQFSLKLSSVTAADTAVYYCAIEGANYYDFGYVAFDIWGQGTMVTVSS VL: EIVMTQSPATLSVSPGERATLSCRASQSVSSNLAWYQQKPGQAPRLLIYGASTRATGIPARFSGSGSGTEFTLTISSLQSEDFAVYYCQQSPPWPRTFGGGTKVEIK
a: 0 score (0-1)

q: Look up Polyspecificity Reagent (PSR) Score (0-1) for this binder: anti-TIGIT antibody clone 32931 (antibody, V domains shown) VH: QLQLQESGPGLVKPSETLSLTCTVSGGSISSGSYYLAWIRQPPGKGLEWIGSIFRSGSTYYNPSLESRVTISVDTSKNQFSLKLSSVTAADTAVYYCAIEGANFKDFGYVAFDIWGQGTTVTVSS VL: EIVMTQSPATLSVSPGERATLSCRASKSVSSNLAWYQQKPGQAPRLLIYFASTRATGIPARFSGSGSGTEFTLTISSLQSEDFAVYYCQQTSPWPRTFGGGTKVEIK
a: 0 score (0-1)

q: Look up Polyspecificity Reagent (PSR) Score (0-1) for this binder: anti-TIGIT antibody clone 29523 (antibody, V domains shown) VH: EVQLVESGGGVVQPGRSLRLSCAASGFTFGSYYMHWVRQAPGKGLEWVAVIWPDGSNKLYADSVKGRFTISRDNSKNTLYLQMNSLRAEDTALYYCAKPVPKSRALDVWGQGTMVTVSS VL: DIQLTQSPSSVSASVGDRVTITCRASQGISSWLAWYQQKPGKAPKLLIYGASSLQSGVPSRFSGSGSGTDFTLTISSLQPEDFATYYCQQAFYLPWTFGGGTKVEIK
a: 0.12 score (0-1)
